# Assay info: Metabolic stability in mouse liver microsome assessed as half life at 1 uM incubated upto 45 mins in presence of NADPH-regenerating system by LC-MS analysis
# Format: ADME
# Experimental setup: liver microsomes
Parameter: half-life at […], 1 µM (min)

Below are worked cases with known answers.
Entry under review: Cc1cc(OCc2nnc(SC3C=CCCC3)n2-c2cccnc2)ccc1C#CCOC(=O)NCCN1CCN(C)CC1 (stereo not given) . Reported half-life at […], 1 µM?
8

I would be grateful if you could share the reported half-life at […], 1 µM for `Cc1cc(OCc2nnc(SC3CCCCC3)n2-c2cccnc2)ccc1-c1ccc(S(C)(=O)=O)cc1` .
8

Would you mind telling me what half-life at […], 1 µM value was observed for CN1CCN(CCNC(=O)OCC#Cc2ccc(OCc3nnc(SC4C=CCCC4)n3-c3cccnc3)cc2F)CC1 (stereo not given) ?
4

(I) CN1CCC(NC(=O)OCC#Cc2ccc(OCc3nnc(SC4C=CCCC4)n3-c3cccnc3)c(F)c2F)CC1 (stereo not given)
(II) Cc1cc(OCc2nnc(SC3C=CCCC3)n2-c2cccnc2)ccc1C#CCO (stereo not given)
(III) Cc1cc(OCc2nnc(SC3CCCC=C3F)n2-c2cccnc2)ccc1-c1ccc(S(C)(=O)=O)cc1 (stereo not given)
(IV) CN1CCC(NC(=O)OCC#Cc2cc(F)c(OCc3nnc(S[C@H]4C=CCCC4)n3-c3cccnc3)cc2F)CC1
Endpoint returns the given compounds ordered by ascending half-life at […], 1 µM. // rank by listing labels in the order requested
II, IV, I, III

---

# Assay info: Metabolic stability in mouse liver microsome assessed as half life at 1 uM incubated upto 45 mins in presence of NADPH-regenerating system by LC-MS analysis
# Type: ADME
# Experimental setup: liver microsomes
Parameter: half-life at […], 1 µM (min)

(A) Cc1cc(OCc2nnc(SC3C=CCCC3)n2-c2cccnc2)ccc1C#CCNC(=O)OC(C)(C)C (stereo not drawn)
(B) COCCSc1nnc(COc2ccc(-c3ccc(S(C)(=O)=O)cc3)c(C)c2)n1-c1cccnc1
// compare measured half-life at […], 1 µM between A and B ; output the lower one Your answer should be the label attached to the chosen record.
A

(1) [2H]C1([2H])C([2H])([2H])C([2H])([2H])C([2H])(Sc2nnc(COc3ccc(-c4ccc(S(C)(=O)=O)cc4)c(C)c3)n2-c2cccnc2)C1([2H])[2H]
(2) Cc1cc(OCc2nnc(SC3CCCC3)n2-c2cccnc2)ccc1-c1ccc(S(C)(=O)=O)cc1
Two entries are listed, 1 and 2 . Which one carries the higher half-life at […], 1 µM? Which one? Tell me its label.
2

---

# Assay info: Metabolic stability in mouse liver microsome assessed as half life at 1 uM incubated upto 45 mins in presence of NADPH-regenerating system by LC-MS analysis
# Assay type: ADME
# Experimental setup: liver microsomes
Parameter: half-life at […], 1 µM (min)

Item Cc1cc(OCc2nnc(SC3C=CCCC3)n2-c2cccnc2)ccc1C#CCNS(=O)(=O)c1ccc(F)cc1 (centres undefined) has what recorded half-life at […], 1 µM?
9

Look up half-life at […], 1 µM: `[2H]C1([2H])C([2H])([2H])C([2H])([2H])C([2H])(Sc2nnc(COc3cc(F)c(C#CCOC(=O)NC4CCN(C)CC4)cc3F)n2-c2cccnc2)C1([2H])[2H]`
8

Query (compound): Cc1cc(OCc2nnc(SC3C=CCCC3)n2-c2cccnc2)ccc1C#CCNS(C)(=O)=O (centres undefined) ; field requested: half-life at […], 1 µM
7

Tell me the measured half-life at […], 1 µM of Cc1cc(OCc2nnc(SC3C=CCCC3)n2-c2cccnc2)ccc1C#CCNC(C)C (centres undefined) , please.
8
